- target or system: PLUTO (Arabidopsis thaliana)
- Construct: Heterologous expression of the full length PLUTO Arabidopsis gene in Escherichia coli uraA insertion mutants; expressed in transfected cells; host or cells: Escherichia coli JD23420 (uraA transposon insertion strain), vector pTAC-MAT-Tag-2
- Sequence (Q9LZD0 1-599): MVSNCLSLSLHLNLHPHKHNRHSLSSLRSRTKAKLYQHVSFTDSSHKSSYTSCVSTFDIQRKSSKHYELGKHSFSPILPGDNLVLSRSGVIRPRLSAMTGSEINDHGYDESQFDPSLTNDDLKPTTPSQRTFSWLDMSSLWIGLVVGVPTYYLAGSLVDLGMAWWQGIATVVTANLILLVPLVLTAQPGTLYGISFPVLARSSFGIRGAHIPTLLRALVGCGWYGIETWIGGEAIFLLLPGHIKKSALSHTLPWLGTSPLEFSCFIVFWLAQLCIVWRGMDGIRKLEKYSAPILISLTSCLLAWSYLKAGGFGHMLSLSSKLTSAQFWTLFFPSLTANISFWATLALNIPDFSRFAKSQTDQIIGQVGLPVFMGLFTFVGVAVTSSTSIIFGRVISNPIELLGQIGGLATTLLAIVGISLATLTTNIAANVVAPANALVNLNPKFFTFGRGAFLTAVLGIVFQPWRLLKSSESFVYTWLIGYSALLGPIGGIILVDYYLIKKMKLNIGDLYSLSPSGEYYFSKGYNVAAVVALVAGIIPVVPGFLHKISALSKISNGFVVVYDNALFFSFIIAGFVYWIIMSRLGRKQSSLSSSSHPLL
- Type: cell-based
- condition notes: wild type PLUTO; 20 μM [14C]-uracil, 200 μM competitor; 2 min
reported property: Effect of competitor on uracil transport

compound | target or system | reported result
O=C(O)c1cc(=O)[nH]c(=O)[nH]1 [orotate] | PLUTO (Arabidopsis thaliana) | affected
Cc1c[nH]c(=O)[nH]c1=O [thymine] | PLUTO (Arabidopsis thaliana) | affected
